target: GP120 (HIV-1 JRFL); experiment: SPR; details: chains peptide; modification not given
outcome_measure: pKd
Hey, just a heads up that pKd is the negative log base 10 of the concentration in molar.

Below: 3 binders and their reported pKd.
Asked: May I ask what pKd has been recorded for SYSFCPRRQGGGGGGSGGSGK [GP3] ?
Given back: 4.41

Asked: May I ask what pKd has been recorded for RRRNVPLILGGGGGGSGGSGK [GP2] ?
Given back: 4.12

Asked: May I ask what pKd has been recorded for LLALSAYMVGGGGGGSGGSGK [GP11] ?
Given back: 4.32

Continue with the binder presented below.
Asked: May I ask what pKd has been recorded for LWCRRLNLLGGGGGGSGGSGK [GP16] ?
Given back: 4.37
